Assay: Mean residence time in rat at 5 to 10 mg/kg, po or 0.05 to 2 mg/kg, iv
Type: ADME, organism-based
Conditions: in vivo, dose 5-10 mg/kg
# if measured MRT < 6 h: Satisfied  # else: Not satisfied

INSERT INTO measurements (smiles_text, assigned_category) VALUES
  ('O=C(N1CCN2CCC1CC2)n1nc(-n2cc(C(F)(F)F)cn2)c2c1[C@H]1C[C@H]1C2', 'Not satisfied'),
  ('CC1(C)Cc2c(c(-c3ccc(F)cc3)nn2C(=O)N2CCN3CCC2CC3)CO1', 'Satisfied'),
  ('Cl.O=C(N1CCN2CCC1CC2)n1nc(-n2cc(C(F)(F)F)cn2)c2c1COCC2', 'Satisfied'),
  ('O=C(N1CCN2CCC1CC2)n1nc(-c2ccc(F)cc2)c2c1COCC2', 'Satisfied');

All values here come from ChEMBL document CHEMBL5223177.
